Some binders, each annotated with its measured PBMCs CD4+ percent bound of viable.
target: T1, human CD4 on cells (SKW3 cells; human PBMCs) (human, UniProt P01730 26-458); assay: FACS confirmation, supernatant on human PBMCs;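 note: flow cytometry with hybridoma supernatants incubated on human PBMCs for 30 min at 4 °C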
T1 construct: whole, on cells; SKW3 CD4 knockout cells served as the negative cell line in the primary screen; also called hCD4; huCD4
Kindly provide the numeric value in % only, without the unit symbol.

75110_08M20A (antibody, V domains shown, Tested as non-clonal AlivaMab Mouse Kappa hybridoma supernatant (detected with anti-mouse Fc gamma and anti-human kappa)) VH: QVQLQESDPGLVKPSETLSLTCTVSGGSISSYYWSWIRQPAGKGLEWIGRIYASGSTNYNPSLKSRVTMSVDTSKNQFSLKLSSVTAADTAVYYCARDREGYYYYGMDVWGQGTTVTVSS VL: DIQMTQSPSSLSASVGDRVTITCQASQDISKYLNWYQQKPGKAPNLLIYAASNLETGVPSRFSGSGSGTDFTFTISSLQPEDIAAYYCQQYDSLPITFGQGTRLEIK	30
75110_06E14A (antibody, V domains shown, Tested as non-clonal AlivaMab Mouse Kappa hybridoma supernatant (detected with anti-mouse Fc gamma and anti-human kappa)) VH: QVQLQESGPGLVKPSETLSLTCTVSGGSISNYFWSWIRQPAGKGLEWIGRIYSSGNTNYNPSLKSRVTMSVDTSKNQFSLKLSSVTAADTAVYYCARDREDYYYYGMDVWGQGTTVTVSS VL: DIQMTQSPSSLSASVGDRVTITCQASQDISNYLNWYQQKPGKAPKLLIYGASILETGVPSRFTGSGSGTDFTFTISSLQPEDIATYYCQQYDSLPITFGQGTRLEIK	30

Query string: I have this binder here, 75110_08D24A (antibody, V domains shown, Tested as non-clonal AlivaMab Mouse Kappa hybridoma supernatant (detected with anti-mouse Fc gamma and anti-human kappa)) VH: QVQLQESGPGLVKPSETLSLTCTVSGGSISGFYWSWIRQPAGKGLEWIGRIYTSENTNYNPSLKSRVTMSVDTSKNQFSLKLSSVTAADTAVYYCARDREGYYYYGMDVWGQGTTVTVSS VL: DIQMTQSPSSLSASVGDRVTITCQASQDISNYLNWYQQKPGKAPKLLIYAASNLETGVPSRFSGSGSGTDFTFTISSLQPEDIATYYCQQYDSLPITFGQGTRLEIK , and I need its recorded PBMCs CD4+ percent bound of viable.
Result string: 30

Query string: I have this binder here, 75110_06C16A (antibody, V domains shown, Tested as non-clonal AlivaMab Mouse Kappa hybridoma supernatant (detected with anti-mouse Fc gamma and anti-human kappa)) VH: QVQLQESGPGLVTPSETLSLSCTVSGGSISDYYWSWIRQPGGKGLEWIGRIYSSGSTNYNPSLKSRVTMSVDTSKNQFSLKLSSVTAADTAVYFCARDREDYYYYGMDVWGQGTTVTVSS VL: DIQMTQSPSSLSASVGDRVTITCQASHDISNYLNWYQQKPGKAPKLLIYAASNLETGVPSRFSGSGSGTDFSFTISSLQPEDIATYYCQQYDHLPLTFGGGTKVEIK , and I need its recorded PBMCs CD4+ percent bound of viable.
Result string: 28

Query string: I have this binder here, 75110_14I16A (antibody, V domains shown, Tested as non-clonal AlivaMab Mouse Kappa hybridoma supernatant (detected with anti-mouse Fc gamma and anti-human kappa); also called 75110_14116A) VH: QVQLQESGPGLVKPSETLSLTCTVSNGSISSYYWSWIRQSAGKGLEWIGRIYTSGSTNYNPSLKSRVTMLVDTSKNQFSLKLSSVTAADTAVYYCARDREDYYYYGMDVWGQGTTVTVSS VL: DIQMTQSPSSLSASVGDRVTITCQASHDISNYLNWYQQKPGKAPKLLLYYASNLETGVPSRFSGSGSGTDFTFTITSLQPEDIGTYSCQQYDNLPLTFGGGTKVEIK , and I need its recorded PBMCs CD4+ percent bound of viable.
Result string: 23
